molecular target: Adenosine receptor A1 (Rattus norvegicus); experiment: Antagonistic activity expressed as percent displacement of 0.4 nM of [3H]DPCPX from adenosine A1 receptors in rat brain cortex membranes at 10 uM; type: functional, cell membranes; details: Membrane
Reported Endpoint: Antagonism (%)

Look over these answered cases.
1) Nc1sc2c(c1C(=O)c1cccc(C(F)(F)F)c1)CCCC2 32.2
2) Nc1sc2c(c1C(=O)c1ccccc1Cl)CCCC2 35.1
3) Nc1sc2c(c1C(=O)c1ccc([N+](=O)[O-])cc1)CCCC2 19.5

A = CCc1c(C)sc(N)c1C(=O)c1ccccc1
B = CCc1c(C)sc(N)c1C(=O)c1cccc(C(F)(F)F)c1
Prompt line: Kindly identify which of A and B has the larger recorded Antagonism value. Selection: enter the item's label.
Response line: A

P = CCc1c(C)sc(N)c1C(=O)c1ccc(Cl)cc1
Q = Nc1sc2c(c1C(=O)c1ccc(Cl)c(Cl)c1)CCN(Cc1ccccc1)C2
R = Nc1sc2c(c1C(=O)c1ccc(Cl)c(Cl)c1)CCCC2
S = Nc1sc2c(c1C(=O)c1ccccc1)CCN(Cc1ccc(Cl)c(Cl)c1)C2
T = Nc1sc2c(c1C(=O)c1ccccc1)CCN(Cc1cccc(Cl)c1)C2
Prompt line: Hi! Can you put these in order of Antagonism, lowest number first? // respond by listing labels in the order requested
Response line: S, P, R, Q, T
(S: 4%, P: 19.8%, R: 34.7%, Q: 51%, T: 80.1%)

Data origin: ChEMBL document CHEMBL1132378
